- Experimental System: delF508-CFTR-HRP (Homo sapiens, UniProt P13569, DEL508-508)
- Construct: expressed in transfected cells
- Sequence (P13569 with tags, fused parts or gaps DEL508-508): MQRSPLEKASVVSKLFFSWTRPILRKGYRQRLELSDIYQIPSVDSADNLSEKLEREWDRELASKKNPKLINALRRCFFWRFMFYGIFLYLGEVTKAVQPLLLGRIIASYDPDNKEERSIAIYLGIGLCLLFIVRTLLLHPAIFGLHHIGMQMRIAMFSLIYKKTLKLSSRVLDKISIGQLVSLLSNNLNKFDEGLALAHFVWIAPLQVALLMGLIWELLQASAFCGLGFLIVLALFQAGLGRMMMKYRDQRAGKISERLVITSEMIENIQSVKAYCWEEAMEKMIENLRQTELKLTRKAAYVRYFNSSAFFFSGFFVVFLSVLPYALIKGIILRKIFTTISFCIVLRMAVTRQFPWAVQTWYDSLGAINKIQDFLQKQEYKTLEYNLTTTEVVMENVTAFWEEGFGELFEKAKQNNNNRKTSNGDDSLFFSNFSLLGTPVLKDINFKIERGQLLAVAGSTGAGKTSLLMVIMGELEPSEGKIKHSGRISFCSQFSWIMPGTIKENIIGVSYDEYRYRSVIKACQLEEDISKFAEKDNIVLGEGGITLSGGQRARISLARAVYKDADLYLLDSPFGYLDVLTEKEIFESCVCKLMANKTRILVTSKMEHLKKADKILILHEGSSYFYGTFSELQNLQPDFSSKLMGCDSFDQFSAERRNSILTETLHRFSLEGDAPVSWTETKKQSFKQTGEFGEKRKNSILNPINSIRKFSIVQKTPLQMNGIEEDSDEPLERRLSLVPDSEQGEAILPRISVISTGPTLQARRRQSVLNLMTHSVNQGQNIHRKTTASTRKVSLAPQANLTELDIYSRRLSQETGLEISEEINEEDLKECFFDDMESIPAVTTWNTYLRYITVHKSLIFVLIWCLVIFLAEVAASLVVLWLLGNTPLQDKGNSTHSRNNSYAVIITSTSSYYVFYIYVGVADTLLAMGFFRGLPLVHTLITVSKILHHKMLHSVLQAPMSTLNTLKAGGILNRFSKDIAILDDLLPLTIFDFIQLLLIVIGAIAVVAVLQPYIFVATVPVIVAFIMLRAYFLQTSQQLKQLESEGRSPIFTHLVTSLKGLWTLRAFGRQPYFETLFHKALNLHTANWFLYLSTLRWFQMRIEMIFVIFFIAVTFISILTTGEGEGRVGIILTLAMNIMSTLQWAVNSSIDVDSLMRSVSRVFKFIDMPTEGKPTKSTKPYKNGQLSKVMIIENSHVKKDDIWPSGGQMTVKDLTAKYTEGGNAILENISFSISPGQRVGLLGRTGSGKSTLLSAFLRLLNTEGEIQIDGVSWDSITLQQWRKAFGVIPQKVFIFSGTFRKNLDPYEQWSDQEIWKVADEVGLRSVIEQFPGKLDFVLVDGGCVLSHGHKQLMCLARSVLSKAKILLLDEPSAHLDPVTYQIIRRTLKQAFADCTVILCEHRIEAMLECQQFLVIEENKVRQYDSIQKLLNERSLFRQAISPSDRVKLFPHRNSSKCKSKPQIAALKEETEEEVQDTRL
- Protocol: Measurement of delF508-CFTR-HRP surface expression in CFBE41o- cells (HRP luminescence);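 note: percent efficacy relative to a reference CFTR corrector compound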
- Format: cell-based
- Protocol Conditions: CFBE41o-, read-out: DelF508-CFTR-HRP Amax %
Measure Name: Emax (%)
Give your result in % as a bare value.

Consider the following illustrative entries.
INSERT INTO measurements (compound, experimental_system, measure_name, assay_result) VALUES
  ('[2H]C1([2H])OC([2H])([2H])C([2H])([2H])N(c2cccc(S(=O)(=O)NC(=O)C3(Oc4cc(C)ccc4C4CCCCC4)CC3)n2)C1([2H])[2H]', 'delF508-CFTR-HRP (Homo sapiens, UniProt P13569, DEL508-508)', 'Emax', 383),
  ('Cc1ccc(-c2ccc(C(F)(F)F)cc2)c(OC2(C(=O)NS(=O)(=O)c3cccc(N4CC[C@H](O)C4)n3)CC2)c1', 'delF508-CFTR-HRP (Homo sapiens, UniProt P13569, DEL508-508)', 'Emax', 416),
  ('Cc1ccc(CC(C)C)c(OC2(C(=O)NS(=O)(=O)c3cccc(NC[C@H](C)O)n3)CC2)c1', 'delF508-CFTR-HRP (Homo sapiens, UniProt P13569, DEL508-508)', 'Emax', 477);

Now consider a different compound.
Task: # query: Emax of entry O=C(NS(=O)(=O)c1cccc(N2CCC(O)(C(F)(F)F)CC2)n1)C1(Oc2cc(Cl)ccc2N2CCC3(CC2)CC3)CC1
Result: 553
